meta.source: the OPERA property sets (Mansouri et al. 2018)

Is melting point at least 90 °C? Then Condition met. If not, Condition not met.

[ask] Hello, I need to know if NC(=O)c1ccc(F)cc1 has measured melting point not below 90 °C. Thanks!
[reply] Condition met

[ask] Same read-out for O=S1(=O)OCC2C(CO1)C1(Cl)C(Cl)=C(Cl)C2(Cl)C1(Cl)Cl (centres undefined) ?
[reply] Condition met

[ask] Same read-out for CCOC(=O)C(c1c(O)c2ccccc2oc1=O)c1c(O)c2ccccc2oc1=O ?
[reply] Condition met

[ask] Same read-out for Cc1ccc2c(ccc3ccccc32)c1 ?
[reply] Condition not met

[ask] Same read-out for C/C(=N\C#N)N(C)Cc1ccc(Cl)nc1 ?
[reply] Condition met

[ask] Same read-out for c1ccc(Cn2cccc2)cc1 ?
[reply] Condition not met

[ask] Same read-out for C[Si](C)(C)O[Si](C)(C)O[Si](C)(C)O[Si](C)(C)O[Si](C)(C)C ?
[reply] Condition not met

[ask] Same read-out for CCCCCCCCCCCC(=O)OCC ?
[reply] Condition not met

[ask] Same read-out for O=C(O)CONC(=O)c1ccccc1 ?
[reply] Condition met

[ask] Same read-out for OCc1c(Cl)cccc1Cl ?
[reply] Condition met

[ask] Same read-out for COc1ccc2c(c1)CC[C@@H]1[C@@H]2CC[C@]2(C)[C@@H](O)[C@H](O)C[C@@H]12 ?
[reply] Condition met

[ask] Same read-out for CC(C)(C)N(NC(=O)c1ccccc1)C(=O)c1ccc(Cl)cc1Cl ?
[reply] Condition met

[ask] Same read-out for Cc1ccc(S(=O)(=O)N(C)N=O)cc1 ?
[reply] Condition not met

[ask] Same read-out for CCCCCCCCCCCCCCCCCCCCCCCCCCCCCCCCCC ?
[reply] Condition not met

[ask] Same read-out for O[C@@H]1CCCC[C@H]1Cl ?
[reply] Condition not met

[ask] Same read-out for O=C(O)CCCCCCCCCCCCCCCCCCC(=O)O ?
[reply] Condition met

[ask] Same read-out for CC(=NO)c1ccccc1 ?
[reply] Condition not met

[ask] Same read-out for Nc1ccc(S(=O)(=O)Nc2nccs2)cc1 ?
[reply] Condition met

[ask] Same read-out for CC(=O)Nc1ncc([N+](=O)[O-])s1 ?
[reply] Condition met

[ask] Same read-out for CC(C)(c1ccccc1)c1ccc(O)cc1 ?
[reply] Condition not met

[ask] Same read-out for Oc1c(Br)cccc1Br ?
[reply] Condition not met

[ask] Same read-out for CC(=O)c1c(C)c([N+](=O)[O-])c(C(C)(C)C)c([N+](=O)[O-])c1C ?
[reply] Condition met

[ask] Same read-out for OCCCCO ?
[reply] Condition not met

[ask] Same read-out for CCCCCCCCCCCCCCCc1cccc(O)c1O ?
[reply] Condition not met

[ask] Same read-out for NC(=S)Nc1cccc2ccccc12 ?
[reply] Condition met

[ask] Same read-out for CC(C)C1(C)N=C(c2ncccc2C(=O)O)NC1=O (centres undefined) ?
[reply] Condition met

[ask] Same read-out for C/C=C(\C)C(=O)O[C@H]1C[C@@H](OC(C)=O)[C@@]2(C(=O)OC)CO[C@H]3[C@@H](O)[C@@](C)([C@]45O[C@@]4(C)[C@H]4C[C@@H]5O[C@@H]5OC=C[C@@]54O)[C@H]4[C@]1(CO[C@]4(O)C(=O)OC)[C@@H]32 ?
[reply] Condition met

[ask] Same read-out for CC(=O)NC(CC(=O)[O-])C(=O)[O-] (centres undefined) ?
[reply] Condition met

[ask] Same read-out for CCOC(=O)C(=O)OCC ?
[reply] Condition not met

[ask] Same read-out for COc1ccc2c(c1)c(CC(=O)O)c(C)n2C(=O)/C=C/c1ccccc1 ?
[reply] Condition met

[ask] Same read-out for c1ccc2c(c1)Cc1c-2ccc2ccccc12 ?
[reply] Condition met

[ask] Same read-out for Brc1ccc(Br)c2ccccc12 ?
[reply] Condition not met

[ask] Same read-out for O=C(O)Cc1ccccc1CC(=O)O ?
[reply] Condition met

[ask] Same read-out for CC(=O)OCC(=O)[C@@]12OC(C)(C)O[C@@H]1C[C@H]1[C@@H]3CC(C=O)=C4C=C(OCCCl)CC[C@]4(C)[C@@]3(F)[C@@H](O)C[C@@]12C ?
[reply] Condition met

[ask] Same read-out for Clc1cc2c(cc1Cl)Oc1ccccc1O2 ?
[reply] Condition met

[ask] Same read-out for Cc1ccc[nH]c1=O ?
[reply] Condition met

[ask] Same read-out for COC(=O)[C@H](Cc1ccccc1)NC(=O)[C@@H](N)CC(=O)O ?
[reply] Condition met

[ask] Same read-out for Nc1c(Cl)c(F)nc(OCC(=O)O)c1Cl ?
[reply] Condition met

[ask] Same read-out for CC(C)(C)c1cccc2ccccc12 ?
[reply] Condition not met

[ask] Same read-out for CCOc1ccccc1OCC ?
[reply] Condition not met

[ask] Same read-out for OCC(CO)(CBr)CBr ?
[reply] Condition met

[ask] Same read-out for CC(C)(OO)c1ccccc1 ?
[reply] Condition not met

[ask] Same read-out for CCOC(=O)CNc1nc(Cl)nc(NC(C)C)n1 ?
[reply] Condition met

[ask] Same read-out for Oc1ccc2c(O)c3ccccc3cc2c1O ?
[reply] Condition met

[ask] Same read-out for Cc1cccc(C)c1NC1=NCCCS1 ?
[reply] Condition met

[ask] Same read-out for c1ccc2sc(SSc3nc4ccccc4s3)nc2c1 ?
[reply] Condition met

[ask] Same read-out for Nc1cccc2ccc(O)cc12 ?
[reply] Condition met

[ask] Same read-out for Oc1ccc(O)c(-c2ccccc2)c1 ?
[reply] Condition met

[ask] Same read-out for O=C(O)Cc1cccc(F)c1 ?
[reply] Condition not met

[ask] Same read-out for CC(=O)c1ccc2ccccc2c1O ?
[reply] Condition met

[ask] Same read-out for CCCC(CC)C1(CC)C(=O)NC(=O)NC1=O (centres undefined) ?
[reply] Condition met

[ask] Same read-out for Brc1cc2c(cc1Br)Oc1cc(Br)c(Br)cc1O2 ?
[reply] Condition met

[ask] Same read-out for O=C(O)Cc1ccccc1Oc1ccc(Cl)cc1Cl ?
[reply] Condition met
